# Tested on: CCRF-CEM
# ASSAY: NCI tumour cell line growth inhibition, 48 h
The source made the active and inactive calls. No stated cut-off is given here; in the data, active = GI50 up to about 1.1 µM and inactive = higher.
Hello, when you answer, please use one of the following outcomes: active, inactive

>  <COMPOUND STRING>
O=C1c2cc([N+](=O)[O-])cc3cc([N+](=O)[O-])cc(c23)C(=O)N1CCCNCCNCCCN1C(=O)c2cc([N+](=O)[O-])cc3cc([N+](=O)[O-])cc(c23)C1=O

>  <CAT>
active

$$$$
>  <COMPOUND STRING>
CNc1ccc(/C=C2\C=Cc3ccccc32)cc1

>  <CAT>
inactive

$$$$
>  <COMPOUND STRING>
N#Cc1c(C#N)c(-c2ccccc2)n(Cc2ccccc2)c1N

>  <CAT>
inactive

$$$$

Just curious, what result did "Cc1ccc(C(=O)N/N=C(\N=N\c2ccccc2)c2ccc(N(CCC#N)CCC#N)cc2C)cc1" get here? inactive

Same question, "N#[N+][c-]1c(-c2ccccc2)n[nH]c1=O" this time inactive

----------
# Tested on: HOP-62
# ASSAY: NCI tumour cell line growth inhibition, 48 h
Activity calls are given as the source filed them. Cut-off read from the data, not from the text of the source: active = GI50 up to about 1.1 µM and inactive = higher.
Hello, when you answer, please use one of the following outcomes: label 1 for active, label 0 for inactive

Examples from the recorded data:
>  <MOLECULE>
O=C(/C=C/c1ccc(Cl)cc1)Oc1ccc(C=C2CCC/C(=C\c3ccc(OC(=O)/C=C/c4ccc(Cl)cc4)cc3)C2=O)cc1

>  <CAT>
label 0

$$$$
>  <MOLECULE>
CC(=O)C1(Cc2cccc3ccccc23)S(=O)(=O)OCCOS1(=O)=O

>  <CAT>
label 0

$$$$
>  <MOLECULE>
COc1cc(OCCN(C)C)c2[nH]c(C(=O)N3CC(CCl)c4ccc(N)cc43)cc2c1 (stereo unspecified)

>  <CAT>
label 1

$$$$

Just curious, what result did c1ccc2c(c1)N=c1cc3c(cc1N2)=NC12CCCCC1CC1=C(CCCC1)N32 (stereo unspecified) get here? label 0

Same question, OC(c1ccc(F)cc1)C(F)(F)c1nc2ccccc2o1 (stereo unspecified) this time label 0

Same question, CN1c2ccccc2N(C)C23N(C)c4ccccc4N(C)C12N(C)c1ccccc1N3C (stereo unspecified) this time label 0

----------
# System: CCRF-CEM
# ASSAY: NCI tumour cell line growth inhibition, 48 h
Active and inactive are the calls of the source. Cut-off read from the data, not from the text of the source: active = GI50 up to about 1.1 µM and inactive = higher.
Hello, when you answer, please use one of the following outcomes: True (active), False (inactive)

Just curious, what result did "CC(C)NC(=O)CN1CCN(C2=CC(=O)c3c(O)ccc(O)c3C2=O)CC1" get here? False

Same question, C[N+]12CCCCC1C(CN1C(=O)c3ccccc3C1=O)CCC2 (stereo unspecified) this time False

Same question, "Cc1c(Cl)cccc1/N=N/C(=O)NNc1cccc(Cl)c1C" this time False

----------
# System: IGROV-1
# ASSAY: NCI tumour cell line growth inhibition, 48 h
Calls of active or inactive are those of the source. Cut-off read from the data, not from the text of the source: active = GI50 up to about 1.1 µM and inactive = higher.
ATTRIBUTE MEASURED: GI50

Below, 6 compounds whose answers are already recorded.
>  <COMPOUND>
COC(=O)c1ccc2cc(O)c(O)cc2c1

>  <GI50>
26.7 µM (inactive)

$$$$
>  <COMPOUND>
O=C1c2cccc([N+](=O)[O-])c2C(=O)N1Cc1ccccc1

>  <GI50>
> 100 µM (inactive)

$$$$
>  <COMPOUND>
Clc1cccc(Cl)c1C1SCC2=Nc3ccccc3CN21 (centres undefined)

>  <GI50>
22.9 µM (inactive)

$$$$
>  <COMPOUND>
Nc1cc(CO)cc(Nc2nc3ccc(Cl)cc3c3[nH]c4ccccc4c23)c1

>  <GI50>
1.54 µM (inactive)

$$$$
>  <COMPOUND>
NC1CC(=O)c2c(Cl)sc(Cl)c21 (centres undefined)

>  <GI50>
4.12 µM (inactive)

$$$$
>  <COMPOUND>
Clc1ccc(Cl)c(SCCCN2CCNCC2)c1

>  <GI50>
18.2 µM (inactive)

$$$$

Please look at the items below and tell me GI50 for each one, in order.
1. Cn1cnc([N+](=O)[O-])c1Sc1nc(N)nc2c1ncn2[C@H]1C[C@H](O)[C@@H](CO)O1
2. CC(C)NC(=O)CN1CCN(C2=CC(=O)c3c(O)ccc(O)c3C2=O)CC1
3. C[C@]12CC(c3ccccc3O1)C(C(=O)NC13CC4CC(CC(C4)C1)C3)C(=O)N2 (some centres undefined)

1: 5.13 µM (inactive); 2: 14.8 µM (inactive); 3: 31.4 µM (inactive)
